Assay: clinical
Conditions: human, plasma, oral, 24 mg, T1/2, 24 mg t.i.w., cycle 1 Day 1, mean
metric_name: half-life (h)
Kindly answer with a numeric value in h, unit omitted.

I'd like to know its half-life. The molecule in question is C=CC(=O)N1CC[C@H](n2nc(C#Cc3cc(OC)cc(OC)c3)c3c(N)ncnc32)C1 3.52

----------
Assay: clinical
Conditions: human, plasma, oral, 56 mg, Tmax, 56 mg t.i.w., cycle 1 Day 1, median
metric_name: Tmax
Answers without a unit are incomplete; give the number and then its unit.

Need Tmax, item C=CC(=O)N1CC[C@H](n2nc(C#Cc3cc(OC)cc(OC)c3)c3c(N)ncnc32)C1 3.08 h
